This section presents compounds with their documented log10 Ki values.
- ASSAYED_TARGET: Human immunodeficiency virus type 1 protease (Human immunodeficiency virus 1, UniProt Q72874, Q7K)
- ASSAY_PROTOCOL: Inhibition of HIV1 protease Q7K mutant by FRET method
- COND: read-out: Ki
// units: nM (pre-log); metric: Ki; scale: log10

- GIVEN_SMILES: "CC(=O)/C=C/C(=O)N[C@@H](Cc1ccccc1)[C@H](O)CN(Cc1cccs1)S(=O)(=O)c1cnoc1C"
  log10 Ki: 4.42
- GIVEN_SMILES: "COc1cccc(S(=O)(=O)N(C[C@H]2CCCO2)C[C@@H](O)[C@H](Cc2ccccc2)NC(=O)[C@@H]2CN(c3ccccc3)C(=O)O2)c1"
  log10 Ki: 1.62
- GIVEN_SMILES: "CC[C@@H](C)CN(C[C@@H](O)[C@H](Cc1ccccc1)NC(=O)[C@@H](NC(C)=O)C(C)C)S(=O)(=O)c1ccc(OC)cc1"
  log10 Ki: -1.48
- GIVEN_SMILES: "COc1cccc(S(=O)(=O)N(Cc2cccs2)C[C@@H](O)[C@H](Cc2ccccc2)Nc2cc(F)c(F)c(O)c2F)c1"
  log10 Ki: 2.71

Return reported log10 Ki. Input compound: COc1cccc(S(=O)(=O)N(C[C@H](C)O)C[C@@H](O)[C@H](Cc2ccccc2)NC(=O)c2cccc(C)n2)c1
3.68

Quick one: give measured log10 Ki for O=C(Cc1cccs1)N[C@@H](Cc1ccccc1)[C@H](O)CN(Cc1cccs1)S(=O)(=O)c1cc(F)c(F)cc1F
3.37

Give the reported log10 Ki for this compound. COc1ccc(S(=O)(=O)N(CC(C)C)C[C@@H](O)[C@H](Cc2ccccc2)NC(=O)[C@@H](O)C(C)C)cc1
0.27
